- System: MDA-N
- PROTOCOL: NCI tumour cell line growth inhibition, 48 h
The source made the active and inactive calls. Rule as the data show it: active = GI50 up to about 1.1 µM and inactive = higher.
Classes used: active, inactive

| MOLECULE | CLASS_NAME |
| --- | --- |
| O=C(O)[C@H]1CCCN1CP(=O)(O)CN1CCC[C@@H]1C(=O)O | inactive |
| O=C(O)c1nc2cc(C(F)(F)F)ccc2nc1Nc1ccc(Cl)c(Cl)c1 | inactive |
| CC(C)CCCC(C)[C@H]1CC[C@H]2[C@@H]3CC[C@H]4C[C@@H](CCC=C(c5cc(Cl)c(O)c(C(=O)OC(C)(C)C)c5)c5cc(Cl)c(O)c(C(=O)OC(C)(C)C)c5)CC[C@]4(C)[C@H]3CC[C@]12C (some centres undefined) | inactive |
| CCC1(O)C(=O)OCc2c1cc1n(c2=O)Cc2cc3ccccc3nc2-1 (centres undefined) | active |
| O=c1c(C(c2ccc3c(c2)Cc2ccccc2-3)c2c(O)oc3ccccc3c2=O)c(O)oc2ccccc12 | inactive |
| BrC(=C(c1ccc(OC2CCCCO2)cc1)c1ccc(OC2CCCCO2)cc1)c1ccccc1 (centres undefined) | inactive |
| CC(NC(=O)/C(C#N)=C/c1ccc2[nH]ccc2c1)c1ccccc1 (centres undefined) | inactive |
| COc1cccc2cc(C(N)=O)c(=N)oc12 | inactive |
| COc1ccc(C2=C(Cl)c3cc(OC)c(OC)cc3C2Cl)cc1 (centres undefined) | inactive |
| COc1cccc2c1C(=O)c1c(O)c3c(c(O)c1C2=O)C[C@@](O)(C(=O)CO)C[C@@H]3OC1CC(N)C(OC)C(C)O1 (some centres undefined) | active |
| c1ccc2c(c1)[n-]n1c3ccc4nonc4c3n[n+]21 | inactive |
| O=C(Nc1ccccc1)c1cc(S(=O)(=O)N2CCNNC2=O)c(S)cc1Cl | inactive |
| CCN(CC)c1c(N(CC)CC)c(=O)c1=O | inactive |
| CN1C(=O)C(O)CC1c1ccccc1C(F)(F)F (centres undefined) | inactive |
| CC(C)C[C@H](NC(=O)[C@H](Cc1cccc2ccccc12)NC(=O)N1CCOCC1)B(O)O | active |
| CSC1=NN(c2ccccc2)C(=O)C1=C(SC)SC | inactive |
| CCNC(=S)NNC(=O)c1csc(NC(=S)NC2CCCCC2)n1 | inactive |
| COc1c(Cl)ccc(Cl)c1C(=O)NNC(=O)c1c(Cl)c(Cl)c(Cl)c(Cl)c1-c1nc2cc(C(=O)c3ccccc3)ccc2[nH]1 | inactive |
| Cc1ccc(C(=O)N(Cc2ccccc2)Cc2ccccc2)cc1/N=N/N(C)C | inactive |
| COC(=O)c1cc(C)ccc1CC(Cc1cccc(C)c1)C(=O)OC (centres undefined) | inactive |
| N#CCCC1C(C#N)C2CC1C1C3C=CC(C3)C21 (centres undefined) | inactive |
| CNc1nnc(CNc2ccc(-c3nnc(NC)n3N)cc2)n1N | inactive |
| Nc1cc(CO)cc(Nc2c3ccccc3nc3ccccc23)c1 | inactive |
| COC1C=C(NCC2(CO)CCC2)N=C(N)N1 (centres undefined) | inactive |
| CN(C)c1ccc(/C=C/C=c2/c3ccccc3n3c2cc(-c2ccccc2)[n+]3C)cc1 | active |
| Cc1nc(Nc2nc3ccccc3[nH]2)[nH]c(=O)c1CCO | inactive |
| COc1ccc(NC(=O)CC(=O)NN)cc1 | inactive |
| Cn1c2c3c(F)c(F)ccc3nc-2cc2ccccc21 | inactive |
| CN1C(C(=O)Nc2ccccn2)=C(O)c2ccccc2S1(=O)=O | inactive |
| CCN(CC)C(=S)SC(C(=O)Nc1nnc(-c2ccc(Cl)cc2)o1)c1ccccc1 (centres undefined) | inactive |
| S=c1nc(Nc2ccc(Br)cc2)c2c3c(sc2[nH]1)CN(N1CCc2c(sc4[nH]c(=S)nc(Nc5ccc(Br)cc5)c24)C1)CC3 | inactive |
| CC(=O)O[C@H]1C[C@](C)(O)[C@@]23CC([C@@H](OC(=O)C(C)(C)O)[C@@H](OC(C)=O)C2(COC(=O)c2ccccc2)[C@H]1OC(C)=O)C(C)(C)O3 (some centres undefined) | inactive |
| Nc1nc(N)c(CCCCc2ccccc2)c(N)n1 | inactive |
| O=C1c2cccc3cccc(c23)C(=O)N1CCCNOCCONCCCN1C(=O)c2cccc3cccc(c23)C1=O | inactive |
| O=P12N(CCN1c1ccccc1)CCN2c1ccccc1 | inactive |
| CC(=O)n1nc(-c2ccc3ccccc3c2)nc1C | inactive |
| Oc1c(NCn2nc(CCCCCCCCc3nn(CNc4ccc5ccccc5c4O)c(=S)o3)oc2=S)ccc2ccccc12 | inactive |
| CCCCCCCCCC(=O)NC(CCC(=O)N(CCNC(=O)c1nc(-c2ccccc2)oc1-c1ccccc1)Cc1ccccc1)C(=O)O (centres undefined) | inactive |
| CC(CO)CCC(O)C(C)(O)C1CCC2(O)C3=CC(=O)C4CC(O)C(O)CC4(C)C3CCC12C (centres undefined) | inactive |

---

- Test system: OVCAR-3
- PROTOCOL: NCI tumour cell line growth inhibition, 48 h
Activity calls are given as the source filed them. Rule as the data show it: active = GI50 up to about 1.1 µM and inactive = higher.
Classes used: active, inactive

| COMPOUND | CLASS_NAME |
| --- | --- |
| CCOC(=O)C(SCCO)C(C(=O)OCC)n1cnc2c(=O)[nH]c(NC(C)=O)nc21 (stereo not given) | inactive |
| Cc1ccc(-n2cc(/C(N)=N/O)c3ccccc3c2=O)cc1 | inactive |
| C/C=C1\NC(=O)[C@H]2CSSCCC=C[C@H](CC(=O)N[C@H](C(C)C)C(=O)N2)OC(=O)[C@H](C(C)C)NC1=O | active |
| COC(COC(N)=O)C1=C(N2CC2)C(=O)C(C)=C(N2CC2)C1=O (stereo not given) | active |
| [O-][n+]1onc2c1CCC(=N\O)/C2=N/Nc1ccccc1 | inactive |
| NC(=O)C1CCN(Cc2c(Cl)c(Cl)c(CN3CCC(C(N)=O)CC3)c(Cl)c2Cl)CC1 | inactive |
| Oc1c(-c2ccccc2)sc2ccccc12 | inactive |
| O=C(O)C/C(=C\c1ccccc1)C(=O)O | inactive |
| Cc1ccc(N2C(=O)C3c4[nH]c5ccc(C)cc5c4C4CCC(C(C)(C)C)CC4C3C2=O)cc1 (stereo not given) | inactive |
| O=C(O)C1(Nc2ccc(Cl)cc2)CCCC1 | inactive |

---

- Test system: CAKI-1
- PROTOCOL: NCI tumour cell line growth inhibition, 48 h
Calls of active or inactive are those of the source. Cut-off read from the data, not from the text of the source: active = GI50 up to about 1.1 µM and inactive = higher.
Classes used: active, inactive

| MOLECULE | SUBJECT_OF_TEST | CLASS_NAME |
| --- | --- | --- |
| O=C(Nc1ccccc1)N1N=C(c2ccccc2)C1c1ccccc1 (configuration not stated) | CAKI-1 | inactive |
| Cc1cc(=O)oc2cc(OC(=O)N(C)C)c(Cl)cc12 | CAKI-1 | inactive |
| O=C1c2cccc3cccc(c23)C(=O)N1CCCNOCCONCCCN1C(=O)c2cccc3cccc(c23)C1=O | CAKI-1 | inactive |
| CCCOc1ccc(/C=C\c2cc(OC)c(OC)c(OC)c2)cc1 | CAKI-1 | inactive |
| CCC12C=CCN3CCC4(C(=C(C(=O)OC)[C@@H]1O)Nc1ccccc14)C32 (some centres not stated) | CAKI-1 | inactive |
| N#CC(C(=O)C(=O)Nc1c(Cl)cccc1Cl)c1ccccc1 (configuration not stated) | CAKI-1 | inactive |
| CC(O)C(NC(=O)c1ccccc1)C(=O)N(Cc1ccccc1)Cc1ccccc1 (configuration not stated) | CAKI-1 | inactive |
| O=C(CC1(O)C(=O)Nc2ccccc21)c1cccc(O)c1 (configuration not stated) | CAKI-1 | inactive |
| COC(=O)C(Cc1c[nH]c2ccccc12)NC(=O)c1ccc(-c2ccc(Cl)cc2Cl)o1 (configuration not stated) | CAKI-1 | inactive |
| CN(C)c1ccc(/C=C/C=c2/c3ccccc3n3c2cc(-c2ccccc2)[n+]3C)cc1 | CAKI-1 | active |
| COC1CCCCN1C(=O)c1ccccc1 (configuration not stated) | CAKI-1 | inactive |
| CO/N=C(/C(=O)OC)c1ccccc1COc1ccccc1C(F)(F)F | CAKI-1 | inactive |
| CC[N+]1(C)CCC(O)(c2ccc(Cl)c(Cl)c2)C(C(=O)c2ccc(Cl)c(Cl)c2)C1 (configuration not stated) | CAKI-1 | inactive |
| N#CCCN(CCN(C(=O)Nc1ccccc1)c1ccccc1)C(=O)Nc1ccccc1 | CAKI-1 | inactive |
| c1ccc(C(c2ccccc2)c2ccncc2)cc1 | CAKI-1 | inactive |
| CCNC(=O)O/N=C1\CCC2[C@@H]3CC=C4C[C@@H](OC(=O)NCC)CC[C@]4(C)C3CC[C@]12C (some centres not stated) | CAKI-1 | inactive |
| C[n+]1c(-c2ccc(/C=N\N3CCN(/N=C/c4ccc(-c5cn6ccccc6[n+]5C)cc4)CC3)cc2)cn2ccccc21 | CAKI-1 | inactive |
| CC(=O)OCSc1ncnc2c1ncn2CN1CCOCC1 | CAKI-1 | inactive |
| Cc1ccc(C(=O)N(Cc2ccccc2)Cc2ccccc2)cc1/N=N/N(C)C | CAKI-1 | inactive |
| O=C1C2Cc3c(n(C(=O)c4ccccc4)c4ccccc34)CC2C(=O)N1c1ccc(Nc2ccc(N3C(=O)C4Cc5c(n(C(=O)c6ccccc6)c6ccccc56)CC4C3=O)cc2)cc1 (configuration not stated) | CAKI-1 | inactive |
| CN1C(=O)C(C)(C)NS1(=O)=O | CAKI-1 | inactive |
| COc1cccc(C(=O)C(O)c2cccc(OC)c2OC)c1OC (configuration not stated) | CAKI-1 | inactive |
| CO/N=C1/c2sccc2[C@H](NC(=O)CNC(=O)OC(C)(C)C)[C@@H]1O | CAKI-1 | inactive |
| Cc1nc2sccn2c1C(=O)OCCOCCOCCOCCOC(=O)c1c(C)nc2sccn12 | CAKI-1 | inactive |
| CN(C)CCOc1ccc(-c2c(Oc3ccccc3)c(=O)oc3ccccc23)cc1 | CAKI-1 | inactive |
| CN(C)c1ccc(/C=N/c2ccc(Oc3ccc(Cl)cc3)c(Cl)c2)cc1 | CAKI-1 | inactive |
| Cc1ccc(Sc2ccccc2N)cc1 | CAKI-1 | inactive |
| CCOC(=O)CNC(=O)C(CSCC1C(=O)Nc2ccccc21)NC(=O)CCC(N)C(=O)OCC (configuration not stated) | CAKI-1 | active |
| CN(C)CCCN1c2ccc3ccccc3c2Sc2cccc(Cl)c21 | CAKI-1 | inactive |
| Cc1c[nH]c2c1C13CC1CN(C(=O)c1cc4cc(NC(=O)c5cc6ccccc6o5)ccc4[nH]1)C3=CC2=O (configuration not stated) | CAKI-1 | active |
| C=Nc1ccc([N+](=O)[O-])cc1 | CAKI-1 | inactive |
| Oc1cc2c(cc1O)-c1[nH]ncc1CC2 | CAKI-1 | inactive |
| COc1ccc(C2C(N)=NCC2c2ccccn2)cc1 (configuration not stated) | CAKI-1 | inactive |
| Cc1cc(C)nc(NS(=O)(=O)c2ccc(Nc3c4ccccc4nc4c(C(=O)Nc5ccc(S(N)(=O)=O)cc5)cccc34)cc2)n1 | CAKI-1 | inactive |
| CCCCI(O)OS(=O)(=O)c1ccc(C)cc1 | CAKI-1 | inactive |
| O=[N+]([O-])/C(C(Cl)=C(Cl)Cl)=C(/Nc1ccccc1)Sc1ccccc1 | CAKI-1 | inactive |
| O=C(O)c1nc2cc(C(F)(F)F)ccc2nc1Nc1ccc(Cl)c(Cl)c1 | CAKI-1 | inactive |
| O=C(O)c1ccc(C2C(=O)N[C@@H]3CCC[C@H]23)cc1 (some centres not stated) | CAKI-1 | inactive |
| C(=C\c1cc[n+](CCc2ccccc2)cc1)/c1ccccc1 | CAKI-1 | inactive |
| CO[C@H]1O[C@@H]2CO[C@@H](c3ccccc3)O[C@H]2C[C@]12CCC/C=C\CO2 | CAKI-1 | inactive |
| c1ccc2c(c1)[n-]n1c3ccc4nonc4c3n[n+]21 | CAKI-1 | inactive |
| CCOC(=O)Cc1nc(/C(C#N)=C/c2ccco2)[nH]c(=O)c1C#N | CAKI-1 | inactive |

Value source: ChEMBL document CHEMBL1201862
